# System: HMEC1
# protocol: Inhibition of cells growth by colorimetric assay (SRB), HMEC1
# Format: cell-based
# condition-parameters: Homo sapiens, HMEC-1, 48 h, read-out: HMEC-1 LC50, HMEC-1; SRB, 48 hours exposure
outcome-measure: LC50 (µM)
Give the number; µM is assumed, so skip it.

Example entries and their recorded answers appear below.
molecule	recorded-measurement
COC1=C(C)C(=O)C2=C(C1=O)[C@@H]1C3[C@@H]4SC[C@]5(NCCc6cc(O)c(OC)cc65)C(=O)OC[C@@H](c5c6c(c(C)c(OC(C)=O)c54)OCO6)N3[C@@H](O)[C@H](C2)N1C (stereo partly shown)	12.9
COc1cc2c(cc1OC)[C@@]1(CS[C@@H]3c4c(OC(C)=O)c(C)c5c(c4[C@H](COC1=O)N1C3[C@H]3c4c(cc(C)c(OC)c4OC)C[C@@H]([C@@H]1O)N3C)OCO5)NCC2 (stereo partly shown)	12.7
C=COC(=O)N1CCc2cc(O)c(OC)cc2[C@@]12CS[C@@H]1c3c(OC(C)=O)c(C)c4c(c3[C@H](COC2=O)N2C1[C@H]1c3c(cc(C)c(OC)c3O)C[C@@H]([C@@H]2O)N1C)OCO4 (stereo partly shown)	0.0756

Now look at this entry.
Inquiry: Request body: readout LC50, system HMEC1, query COc1cc2c(cc1O)CCN(C)[C@]21CS[C@@H]2c3c(OC(C)=O)c(C)c4c(c3[C@H](COC1=O)N1C2[C@H]2c3c(cc(C)c(OC)c3O)C[C@@H]([C@@H]1O)N2C)OCO4 (stereo partly shown) . Return the value.
Reply text: 0.000487

---

# Tested on: DU-145
# protocol: Inhibition of cells growth by colorimetric assay (SRB), DU-145
# Type: cell-based
# condition-parameters: Homo sapiens, DU-145, 48 h, read-out: DU-145 LC50, DU-145; SRB, 48 hours exposure
Entries and their measured CC50 follow.
Express the result in nM but write the number alone.

compound	CC50 / nM
COC1=C(C)C(=O)C2=C(C1=O)[C@@H]1C3[C@@H]4SC[C@]5(NCCc6cc(O)c(OC)cc65)C(=O)OC[C@@H](c5c6c(c(C)c(OC(C)=O)c54)OCO6)N3[C@@H](O)[C@H](C2)N1C (stereo partly shown)	17.9
COc1cc2c(cc1O)CCN(C)[C@]21CS[C@@H]2c3c(OC(C)=O)c(C)c4c(c3[C@H](COC1=O)N1C2[C@H]2c3c(cc(C)c(OC)c3O)C[C@@H]([C@@H]1O)N2C)OCO4 (stereo partly shown)	1.29
C=COC(=O)Oc1cc2c(cc1OC)[C@@]1(CS[C@@H]3c4c(OC(C)=O)c(C)c5c(c4[C@H](COC1=O)N1C3[C@H]3c4c(cc(C)c(OC)c4O)C[C@@H]([C@@H]1O)N3C)OCO5)N(C(=O)OC=C)CC2 (stereo partly shown)	8320

Now consider a different compound.
Inquiry: Need CC50 of COc1cc2c(cc1OC)[C@@]1(CS[C@@H]3c4c(OC(C)=O)c(C)c5c(c4[C@H](COC1=O)N1C3[C@H]3c4c(cc(C)c(OC)c4OC)C[C@@H]([C@@H]1O)N3C)OCO5)NCC2 (stereo partly shown) , thanks.
Reply text: 180

---

# Test system: Myelo
Catalogue of compounds with associated Toxicity Data Myelo
The response must contain the number and no unit.

Here are 5 compounds together with their reported answers.
compound	Toxicity Data Myelo
C=COC(=O)Oc1c(C)c2c(c3c1[C@H]1SC[C@]4(NCCc5cc(OC(=O)OC(C)(C)C)c(OC)cc54)C(=O)OC[C@@H]3N3C1[C@H]1c4c(cc(C)c(OC)c4O)C[C@@H]([C@@H]3O)N1C)OCO2 (stereo partly drawn) [Compound 176]	1.42E-08
COc1cc2c(cc1O)CCN[C@]21CS[C@@H]2c3c(OC(C)=O)c(C)c4c(c3[C@H](COC1=O)N1C2[C@H]2c3c(cc(C)c(OC)c3OC)C[C@@H]([C@@H]1O)N2C)OCO4 (stereo partly drawn) [Compound 98]	3.79E-08
COc1cc2c(cc1OC(=O)Cc1cc(=O)oc3cc(N(C)C)ccc13)CCN[C@]21CS[C@@H]2c3c(OC(C)=O)c(C)c4c(c3[C@H](COC1=O)N1C2[C@H]2c3c(cc(C)c(OC)c3OC(=O)Cc3cc(=O)oc5cc(N(C)C)ccc35)C[C@@H]([C@@H]1O)N2C)OCO4 (stereo partly drawn) [Compound 77]	8.52E-09
COc1cc2c(cc1OC(=O)CCc1ccccc1)CCN[C@]21CS[C@@H]2c3c(OC(C)=O)c(C)c4c(c3[C@H](COC1=O)N1C2[C@H]2c3c(cc(C)c(OC)c3O)C[C@@H]([C@@H]1O)N2C)OCO4 (stereo partly drawn) [Compound 72]	2.15E-08
COC1=C(C)C(=O)C2=C(C1=O)[C@@H]1C3[C@@H]4SC[C@]5(NCCc6cc(O)c(OC)cc65)C(=O)OC[C@@H](c5c6c(c(C)c(OC(C)=O)c54)OCO6)N3[C@@H](O)[C@H](C2)N1C (stereo partly drawn) [Compound 101]	1.96E-08

Inquiry: Would you mind telling me what Toxicity Data Myelo value was observed for COc1cc2c(cc1OC(=O)OC(C)(C)C)CCN[C@]21CS[C@@H]2c3c(OC(C)=O)c(C)c4c(c3[C@H](COC1=O)N1C2[C@H]2c3c(cc(C)c(OC)c3OC(=O)OC(C)(C)C)C[C@@H]([C@@H]1O)N2C)OCO4 (stereo partly drawn) [Compound 86] ?
Reply text: 8.35E-08

Inquiry: Name the reported Toxicity Data Myelo value associated with the compound COc1cc2c(cc1O)CCN[C@]21CS[C@@H]2c3c(OC)c(C)c4c(c3[C@H](COC1=O)N1C2[C@H]2c3c(cc(C)c(OC)c3O)C[C@@H]([C@@H]1O)N2C)OCO4 (stereo partly drawn) [Compound 182]
Reply text: 3.19E-08

Inquiry: What value of Toxicity Data Myelo has been reported for the following compound? C=CCOc1c(C)c2c(c3c1[C@H]1SC[C@]4(NCCc5cc(O)c(OC)cc54)C(=O)OC[C@@H]3N3C1[C@H]1c4c(cc(C)c(OC)c4O)C[C@@H]([C@@H]3O)N1C)OCO2 (stereo partly drawn) [Compound 183]
Reply text: 2.39E-08

Inquiry: Look up Toxicity Data Myelo: CCCC(=O)Oc1c(C)c2c(c3c1[C@H]1SC[C@]4(NCCc5cc(O)c(OC)cc54)C(=O)OC[C@@H]3N3C1[C@H]1c4c(cc(C)c(OC)c4O)C[C@@H]([C@@H]3O)N1C)OCO2 (stereo partly drawn) [Compound 163]
Reply text: 2.38E-07
